The origin of these recorded values is patent US20230340011A1.

target: SREBP-2 (Homo sapiens (Human), UniProt Q12772); assay: In vitro assay SREBP-2: PathHunter U2OS SREBP-2 Nuclear Translocation Cell Line, U18666A-stimulated; format: cell-based; conditions: PathHunter U2OS SREBP-2 nuclear translocation cells, U18666A 10 μM, overnight (16 hours)
readout name: IC50

Would you please look over these solved cases?
COc1ccccc1C1CCN(C(=O)CC[C@@H](C)[C@H]2CC[C@H]3[C@@H]4CC=C5C[C@@H](O)CC[C@]5(C)[C@H]4CC[C@]23C)CC1 [Example 623]    < 0.25 µM
COc1ccnc(CC[C@@H](C)[C@H]2CC[C@H]3[C@@H]4CC=C5C[C@@H](O)CC[C@]5(C)[C@H]4CC[C@]23C)c1 [Example 602]    < 0.25 µM

--- query ---
For record C[C@H](CCc1cc(F)ccn1)[C@H]1CC[C@H]2[C@@H]3CC=C4C[C@@H](O)CC[C@]4(C)[C@H]3CC[C@]12C [Example 163] the listed IC50 is < 0.25 µM
